Source of measurements: ChEMBL document CHEMBL3804759

# targetEntity: AMPK alpha1/beta2/gamma1 (Homo sapiens, UniProt O43741+P54619+Q13131)
# Sequence (O43741 whole entry): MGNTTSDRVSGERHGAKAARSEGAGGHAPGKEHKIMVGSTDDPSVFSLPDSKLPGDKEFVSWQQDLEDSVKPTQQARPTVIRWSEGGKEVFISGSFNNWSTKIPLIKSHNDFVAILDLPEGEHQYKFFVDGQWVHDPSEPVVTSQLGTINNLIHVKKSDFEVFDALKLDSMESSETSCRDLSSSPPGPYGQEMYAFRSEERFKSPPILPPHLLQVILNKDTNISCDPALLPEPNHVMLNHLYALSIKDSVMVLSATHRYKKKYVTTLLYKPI
# Sequence (P54619 whole entry): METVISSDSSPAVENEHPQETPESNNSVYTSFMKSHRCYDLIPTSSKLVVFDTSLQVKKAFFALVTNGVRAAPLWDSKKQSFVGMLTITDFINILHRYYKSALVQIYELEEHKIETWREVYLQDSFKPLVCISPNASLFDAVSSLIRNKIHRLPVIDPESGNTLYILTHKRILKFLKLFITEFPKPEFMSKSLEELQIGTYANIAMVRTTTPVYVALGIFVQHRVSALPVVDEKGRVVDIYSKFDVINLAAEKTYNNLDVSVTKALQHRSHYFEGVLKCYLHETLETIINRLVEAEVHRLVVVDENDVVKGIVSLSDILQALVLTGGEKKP
# Sequence (Q13131 whole entry): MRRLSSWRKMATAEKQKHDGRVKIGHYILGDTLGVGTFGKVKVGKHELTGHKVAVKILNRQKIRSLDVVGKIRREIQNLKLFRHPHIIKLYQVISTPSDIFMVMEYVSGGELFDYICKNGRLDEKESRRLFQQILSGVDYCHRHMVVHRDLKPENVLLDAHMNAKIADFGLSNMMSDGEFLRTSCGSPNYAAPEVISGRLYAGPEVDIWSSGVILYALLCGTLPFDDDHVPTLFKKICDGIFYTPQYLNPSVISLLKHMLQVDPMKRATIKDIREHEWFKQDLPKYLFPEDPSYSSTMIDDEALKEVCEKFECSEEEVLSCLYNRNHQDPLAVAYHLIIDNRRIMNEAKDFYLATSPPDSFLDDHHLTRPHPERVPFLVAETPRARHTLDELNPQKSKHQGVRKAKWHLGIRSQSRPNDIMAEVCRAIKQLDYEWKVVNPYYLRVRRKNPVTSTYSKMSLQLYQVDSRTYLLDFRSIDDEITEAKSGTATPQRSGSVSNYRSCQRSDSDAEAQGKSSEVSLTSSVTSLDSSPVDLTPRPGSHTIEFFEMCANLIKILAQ
# procedureDetails: Binding affinity to human recombinant N-terminal AVI-tagged phosphorylated AMPK alpha1beta2gamma1 expressed in Escherichia coli BL21 cells after 1 to 10 mins by biolayer interferometry
quantityName: Kd (µM)
Answer with a number only, understood to be in µM.

Given item N#Cc1c(O)c2c(-c3ccc(-c4ccccc4O)cc3)csc2[nH]c1=O , the value recorded as its Kd is 14.5
